Please respond with reported TGI for every item in the list.
Test system: OVCAR-8 ovarian
assayProtocol: NCI tumour cell line growth inhibition, 48 h
Answers are plain numbers, in µM.

Below, 10 molecules whose answers are already recorded.
{"columns": ["molecule", "measValue"],
 "data": [
  ["Cc1cc(S(=O)(=O)Nc2nnc(-c3ccccc3)c(-c3ccccc3)n2)c(SCC(N)=O)cc1Cl", 87],
  ["CC(C)(C)c1cc(C(C)(C)C)cc(S(=O)(=O)Nc2cc3ccccc3cc2C(=O)NCCN)c1", 4.87],
  ["CC1OC(OC2C(O[C@H]3CC[C@@]4(C)C(=CC[C@H]5[C@@H]6C[C@@H]7O[C@]8(CC[C@@H](CO)CO8)[C@@H](C)[C@@H]7[C@@]6(C)CC[C@@H]54)C3)OC(CO)C(O)C2OC2OC(CO)C(O)C(O)C2O)C(O)C(O)C1O (some centres undefined)", 3.46],
  ["CC(C)(C)c1cc(Br)c(O)c(CN(Cc2cc(C(C)(C)C)cc(Br)c2O)C2CCCCC2)c1", 28.3],
  ["COc1ccc2ccccc2c1/C=C/C(=O)c1ccccc1", 11.2],
  ["c1cc(CNC23CC4CC(CC(C4)C2)C3)cc(C[N+](Cc2cccc(CNC34CC5CC(CC(C5)C3)C4)c2)(Cc2cccc(CNC34CC5CC(CC(C5)C3)C4)c2)Cc2cccc(CNC34CC5CC(CC(C5)C3)C4)c2)c1 (centres undefined)", 35.4],
  ["COC(=O)[C@@H](C)CNS(=O)(=O)N(c1cc(C(F)(F)F)cc(C(F)(F)F)c1)C1CCN(Cc2ccc(F)cc2)CC1", 33.4],
  ["CCOC(=O)c1c(C)n(Cc2ccc(Cl)cc2Cl)c2c1c(CN(C)C)c(O)c1[nH]cnc12", 28.3],
  ["N#C/C(=C1C=C(Br)/C(=N\\O)C=C\\1Cl)c1cccc2ccccc12", 52.7],
  ["O=C(N/N=C\\c1cccc2c([N+](=O)[O-])cccc12)Nc1ccccc1", 36.8]
]}

Below are 2 molecules. Give each one its TGI.
1. O=Cc1ccc2c(c1)CC1(Cc3ccccc3C1)C2
2. CCOc1ccccc1N=Nc1ccc2oc(=O)c(C(=O)Nc3cccc(C)c3)cc2c1

-- reply
1. 39
2. 86

// batch mode: one TGI value per listed entry
1. O=C(O)c1ccc([N+](=O)[O-])c2cc3cnccc3nc12
2. CCC[CH2][Sn]1([CH2]CCC)[O]CC(CN2CCCC2)[O]1 (centres undefined)
3. N#CC(NNC(=O)Cc1ccccc1)c1c(O)ccc2ccccc12 (centres undefined)
4. CCOC(=O)[C@@H](N)CCC(=O)N[C@@H](CSCc1ccccc1)C(=O)N[C@@H](C(=O)OCC)c1ccccc1

-- reply
1. 48.9
2. 29.4
3. 52.2
4. 32.5
